Listed sequences paired with reported activity (normalized MEL-1)
Tested on: ZFN7264 linker TGLPKPKP (artificial)
Protocol Notes: cell_activity
Study Conditions: yeast, paired with 7263 ZFN

# Sequence Data, activity (normalized MEL-1)
data = [
    ("AAAGCGTGCTCCG (double strand) [7264 yeast half-site gap T]", 0.79),
    ("AAAGCGGCTCCG (double strand) [7264 yeast half-site 0-bp gap]", 0.04),
    ("AAAGCGTTGCTCCG (double strand) [7264 yeast half-site gap TT]", 0.11),
    ("AAAGCGGGCTCCG (double strand) [7264 yeast half-site gap G]", 0.42),
    ("AAAGCGCGCTCCG (double strand) [7264 yeast half-site gap C]", 0.07),
    ("AAAGCGAGCTCCG (double strand) [7264 yeast half-site gap A]", 0.08),
]

* * *

Test system: ZFP7263 linker TQRPQIPPKP (artificial)
Listed sequences paired with reported binding signal (normalized ELISA)

# Sequence Data, binding signal (normalized ELISA)
measured = [
    ("TTAGCCACTCTGCTGGAAGTGTATC (double strand) [7263 target gap C]", 1),
    ("TTAGCCACTCTGATGGAAGTGTATC (double strand) [7263 target gap A]", 1.66),
    ("TTAGCCACTCTGCTTGGAAGTGTATC (double strand) [7263 target gap CT]", 0.01),
    ("TTAGCCACTCTGATTGGAAGTGTATC (double strand) [7263 target gap AT]", 0.02),
    ("TTAGCCACTCTGGTGGAAGTGTATC (double strand) [7263 target gap G]", 2.86),
]

* * *

Test system: ZFN7264 linker TSRPRPKP (artificial)
Protocol Notes: cell_activity
Study Conditions: yeast, paired with 7263 ZFN

# Sequence Data, activity (normalized MEL-1)
rows = [
    ("AAAGCGAGCTCCG (double strand) [7264 yeast half-site gap A]", 0.18),
    ("AAAGCGTTGCTCCG (double strand) [7264 yeast half-site gap TT]", 0.03),
    ("AAAGCGGGCTCCG (double strand) [7264 yeast half-site gap G]", 0.61),
    ("AAAGCGCGCTCCG (double strand) [7264 yeast half-site gap C]", 0.08),
    ("AAAGCGGCTCCG (double strand) [7264 yeast half-site 0-bp gap]", 0.08),
    ("AAAGCGTGCTCCG (double strand) [7264 yeast half-site gap T]", 3.38),
]

* * *

System: ZFP7264 linker TLPLPRPKP (artificial)
Listed sequences paired with reported binding signal (normalized ELISA)
Measured Endpoint: binding signal (normalized ELISA)

# Sequence Data, Numeric Result
measured = [
    ("TTAGTTAAAGCGTTGCTCCGAATATC (double strand) [7264 target gap TT]", 0.04),
    ("TTAGTTAAAGCGAGCTCCGAATATC (double strand) [7264 target gap A]", 0.58),
    ("TTAGTTAAAGCGGGCTCCGAATATC (double strand) [7264 target gap G]", 0.85),
    ("TTAGTTAAAGCGCTGCTCCGAATATC (double strand) [7264 target gap CT]", 0.03),
    ("TTAGTTAAAGCGCGCTCCGAATATC (double strand) [7264 target gap C]", 0.25),
    ("TTAGTTAAAGCGTAGCTCCGAATATC (double strand) [7264 target gap TA]", 0.03),
]

* * *

The next entries give measured binding signal (normalized ELISA) for ZFP8196 linker TVSPAPCRSKP (artificial).

# Sequence Data, binding signal (normalized ELISA)
measured = [
    ("TTAGATAAACTGACAAAAGGCTATC (double strand) [8196 target gap A]", 0.03),
    ("TTAGATAAACTGGCAAAAGGCTATC (double strand) [8196 target gap G]", 0.14),
    ("TTAGATAAACTGACCAAAAGGCTATC (double strand) [8196 target gap AC]", 0),
    ("TTAGATAAACTGTCCAAAAGGCTATC (double strand) [8196 target gap TC]", 0.02),
    ("TTAGATAAACTGCCAAAAGGCTATC (double strand) [8196 target gap C]", 0.01),
    ("TTAGATAAACTGTGCAAAAGGCTATC (double strand) [8196 target gap TG]", 0.01),
]

* * *

Test system: ZFN7263 linker TPNRCPPTKP (artificial)
Protocol Notes: cell_activity
Study Conditions: yeast, paired with 7264 ZFN
The label Criterion met is reserved for activity (normalized MEL-1) strictly under 1; Criterion not met covers values equal to or above it.

# Sequence Data, Class
data = [
    ("ACTCTGTGGAAG (double strand) [7263 yeast half-site 0-bp gap]", "Criterion met"),
    ("ACTCTGACTGGAAG (double strand) [7263 yeast half-site gap AC]", "Criterion met"),
    ("ACTCTGATGGAAG (double strand) [7263 yeast half-site gap A]", "Criterion not met"),
    ("ACTCTGCTGGAAG (double strand) [7263 yeast half-site gap C]", "Criterion met"),
    ("ACTCTGTTGGAAG (double strand) [7263 yeast half-site gap T]", "Criterion not met"),
    ("ACTCTGGTGGAAG (double strand) [7263 yeast half-site gap G]", "Criterion not met"),
]

* * *

Listed sequences paired with reported binding signal (normalized ELISA)
System: ZFP8196 linker TPSHTPRPKP (artificial)

# Sequence Data, binding signal (normalized ELISA)
rows = [
    ("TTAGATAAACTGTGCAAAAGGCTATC (double strand) [8196 target gap TG]", 0.01),
    ("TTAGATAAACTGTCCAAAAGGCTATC (double strand) [8196 target gap TC]", 0.02),
    ("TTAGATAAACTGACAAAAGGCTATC (double strand) [8196 target gap A]", 0.3),
    ("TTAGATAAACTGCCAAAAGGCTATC (double strand) [8196 target gap C]", 0.13),
    ("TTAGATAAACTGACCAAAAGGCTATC (double strand) [8196 target gap AC]", 0.01),
    ("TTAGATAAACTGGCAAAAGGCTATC (double strand) [8196 target gap G]", 0.84),
]

* * *

The next entries give measured binding signal (normalized ELISA) for ZFP7264 linker TGEGGKP (artificial).

# Sequence Data, Study Target, binding signal (normalized ELISA)
rows = [
    ("TTAGTTAAAGCGTTGCTCCGAATATC (double strand) [7264 target gap TT]", "ZFP7264 linker TGEGGKP (artificial)", 0.03),
    ("TTAGTTAAAGCGGGCTCCGAATATC (double strand) [7264 target gap G]", "ZFP7264 linker TGEGGKP (artificial)", 0.05),
    ("TTAGTTAAAGCGTAGCTCCGAATATC (double strand) [7264 target gap TA]", "ZFP7264 linker TGEGGKP (artificial)", 0.02),
    ("TTAGTTAAAGCGCGCTCCGAATATC (double strand) [7264 target gap C]", "ZFP7264 linker TGEGGKP (artificial)", 0.03),
    ("TTAGTTAAAGCGAGCTCCGAATATC (double strand) [7264 target gap A]", "ZFP7264 linker TGEGGKP (artificial)", 0.02),
    ("TTAGTTAAAGCGCTGCTCCGAATATC (double strand) [7264 target gap CT]", "ZFP7264 linker TGEGGKP (artificial)", 0.03),
]

* * *

The next entries give measured binding signal (normalized ELISA) for ZFP7263 linker TGEGGKP (artificial).

# Sequence Data, binding signal (normalized ELISA)
measured = [
    ("TTAGCCACTCTGGTGGAAGTGTATC (double strand) [7263 target gap G]", 0.05),
    ("TTAGCCACTCTGACTGGAAGTGTATC (double strand) [7263 target gap AC]", 0.01),
    ("TTAGCCACTCTGATTGGAAGTGTATC (double strand) [7263 target gap AT]", 0.01),
    ("TTAGCCACTCTGCTGGAAGTGTATC (double strand) [7263 target gap C]", 0.02),
    ("TTAGCCACTCTGCTTGGAAGTGTATC (double strand) [7263 target gap CT]", 0.01),
    ("TTAGCCACTCTGATGGAAGTGTATC (double strand) [7263 target gap A]", 0.02),
]

* * *

Listed sequences paired with reported activity (normalized MEL-1)
Tested on: ZFN7264 linker TGGGGSQKP (artificial)
Protocol Notes: cell_activity
Study Conditions: yeast, paired with 7263 ZFN

# Sequence Data, activity (normalized MEL-1)
rows = [
    ("AAAGCGTTGCTCCG (double strand) [7264 yeast half-site gap TT]", 0.12),
    ("AAAGCGCGCTCCG (double strand) [7264 yeast half-site gap C]", 0.07),
    ("AAAGCGAGCTCCG (double strand) [7264 yeast half-site gap A]", 0.08),
    ("AAAGCGGGCTCCG (double strand) [7264 yeast half-site gap G]", 0.14),
    ("AAAGCGGCTCCG (double strand) [7264 yeast half-site 0-bp gap]", 0.28),
    ("AAAGCGTGCTCCG (double strand) [7264 yeast half-site gap T]", 0.34),
]
